Just for reference, PubChem BioAssay (NCATS) is where these values come from.

- RUN DESCRIPTION: qHTS profiling for inhibitors of Plasmodium falciparum proliferation (AID 504749);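 also: 0% = DMSO vehicle and full inhibition = artemisinin control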
- CONDITION SUMMARY: P. falciparum in erythrocytes, SYBR Green DNA, 72 h; at 28.7 µM (top of the series); parasite line B
Inconclusive results are not listed. Bridge positions count the residues as written; N and C are the ends. Square brackets hold non-standard residues; d marks the D form. Peptide text beside a SMILES is read from it. * marks the point of attachment. Octanoyl(6-Me) = CCC(C)CCCCC(=O)*; Dab = NCC[CH](N)C(=O)O
REPORTED ENDPOINT: activity, negative = inhibition (%)
Please reply with the bare figure in % and do not write the unit itself.

Answered cases to consult:
# COMPOUND, activity, negative = inhibition / %
records = [
    ("C/C=C\\c1ccc(OC)cc1", -2.16),
    ("CN(C)CCCCCCN(C)C", -6.83),
    ("CC(C)CN(C[C@@H](OP(=O)(O)O)[C@H](Cc1ccccc1)NC(=O)O[C@@H]1CCOC1)S(=O)(=O)c1ccc(N)cc1", 9.93),
    ("CO/N=C(/C(=O)N[C@@H]1C(=O)N2C(C(=O)O)=CCS[C@H]12)c1csc(N)n1", 9.16),
    ("S=C1NC=NC2N=CNC12 (stereo not given)", -14.3),
    ("CC(=O)OC1CC2CCC1(C)C2(C)C (stereo not given)", 13.6),
    ("CC1CCC(C(C)C)C(OC(=O)c2ccccc2O)C1 (stereo not given)", 8.37),
    ("NC1=NC(S)C2N=CN=C2N1 (stereo not given)", -5.29),
]

Query activity, negative = inhibition for CC1(C)S[C@@H]2[C@H](NC(=O)COc3ccccc3)C(=O)N2[C@H]1C(=O)O
4.38

Provide one value: measured activity, negative = inhibition of CCC(C)CCCCC(=O)NC(CCN)C(=O)NC(C(=O)NC(CCN)C(=O)NC1CCNC(=O)C(C(C)O)NC(=O)C(CCN)NC(=O)C(CCN)NC(=O)C(CC(C)C)NC(=O)C(Cc2ccccc2)NC(=O)C(CCN)NC1=O)C(C)O (stereo not given) ({Octanoyl(6-Me)}-[Dab]T[Dab][Dab][Dab]FL[Dab][Dab]T; lactam 4-C; configuration not given here)
12
